Entries and their combination Emax values follow.
# Test system: OVCAR-3 (Ovarian Carcinoma)
# assay-notes: combination Emax (second highest fraction inhibited in the dose matrix, 72 h); higher = more inhibition; extreme values may be limits of the assay
readout: combination Emax

compound	readout	value
CC(=O)c1c(C)c2cnc(Nc3ccc(N4CCNCC4)cn3)nc2n(C2CCCC2)c1=O [Palbociclib] + CC1(C)CCC(CN2CCN(c3ccc(C(=O)NS(=O)(=O)c4ccc(NCC5CCOCC5)c([N+](=O)[O-])c4)c(Oc4cnc5[nH]ccc5c4)c3)CC2)=C(c2ccc(Cl)cc2)C1 [Venetoclax] (first compound max 10 µM, 7x7, partner max 1 µM)	combination Emax	0.0774
COc1cc2ncnc(Nc3ccc(F)c(Cl)c3)c2cc1OCCCN1CCOCC1 [Gefitinib] + CC(C)n1c(=O)n(C)c2cnc3cc(F)c(-c4ccc(OCCCN5CCCCC5)nc4)cc3c21 [AZD1390] (first compound max 10 µM, 7x7, partner max 0.3 µM)	combination Emax	0.0817
Cc1c2c(nn1C)CSCc1cc(n(C)n1)CSc1cc(c3ccccc3c1)OCCCc1c(C(=O)O)n(C)c3c-2c(Cl)ccc13 [AZD5991] + C1CN(CCC1(C(=O)N[C@@H](CCO)C2=CC=C(C=C2)Cl)N)C3=NC=NC4=C3C=CN4 [Capivasertib] (first compound max 1 µM, 7x7, partner max 3 µM)	combination Emax	0.185

###

# Tested on: NB1 (Neuroblastoma)
# assay-notes: combination Emax (second highest fraction inhibited in the dose matrix, 72 h); higher = more inhibition; extreme values may be limits of the assay
Entries and their combination Emax values follow.

compound	combination Emax
Cn1cnc2c(F)c(Nc3ccc(Br)cc3Cl)c(C(=O)NOCCO)cc21 [Selumetinib] + C=CCn1c(=O)c2cnc(Nc3ccc(N4CCN(C)CC4)cc3)nc2n1-c1cccc(C(C)(C)O)n1 [AZD1775] (first compound max 10 µM, partner max 1 µM)	0.84
Cc1c2c(nn1C)CSCc1cc(n(C)n1)CSc1cc(c3ccccc3c1)OCCCc1c(C(=O)O)n(C)c3c-2c(Cl)ccc13 [AZD5991] + C1CN(CCC1(C(=O)N[C@@H](CCO)C2=CC=C(C=C2)Cl)N)C3=NC=NC4=C3C=CN4 [Capivasertib] (first compound max 1 µM, 7x7, partner max 3 µM)	0.507

###

Entries and their combination Emax values follow.
# System: NCI-H226 (Mesothelioma)
# assay-notes: combination Emax (second highest fraction inhibited in the dose matrix, 72 h); higher = more inhibition; extreme values may be limits of the assay
readout: combination Emax

molecule	readout	value
Cc1c2c(nn1C)CSCc1cc(n(C)n1)CSc1cc(c3ccccc3c1)OCCCc1c(C(=O)O)n(C)c3c-2c(Cl)ccc13 [AZD5991] + CS(=O)(=O)CCNCc1ccc(-c2ccc3ncnc(Nc4ccc(OCc5cccc(F)c5)c(Cl)c4)c3c2)o1 [Lapatinib] (first compound max 1 µM, 7x7, partner max 10 µM)	combination Emax	0.145
Cn1cnc2c(F)c(Nc3ccc(Br)cc3Cl)c(C(=O)NOCCO)cc21 [Selumetinib] + C[C@@H]1COCCN1C2=NC(=NC(=C2)C3(CC3)[S@](=N)(=O)C)C4=C5C=CNC5=NC=C4 [AZD6738] (first compound max 10 µM, 7x7, partner max 10 µM)	combination Emax	0.152
COc1nnc2ccc(N3CCC(c4ccc(OCCN5CCN(C)C(=O)[C@H]5C)cc4)CC3)nn12 [AZD5153] + C[C@@H]1COCCN1C2=NC(=NC(=C2)C3(CC3)[S@](=N)(=O)C)C4=C5C=CNC5=NC=C4 [AZD6738] (first compound max 1 µM, 7x7, partner max 10 µM)	combination Emax	0.37
C=CCn1c(=O)c2cnc(Nc3ccc(N4CCN(C)CC4)cc3)nc2n1-c1cccc(C(C)(C)O)n1 [AZD1775] + C[C@@H]1COCCN1C2=NC(=NC(=C2)C3(CC3)[S@](=N)(=O)C)C4=C5C=CNC5=NC=C4 [AZD6738] (first compound max 1 µM, partner max 10 µM)	combination Emax	0.466

###

Entries and their combination Emax values follow.
# System: HT-1080 (Other Solid Carcinomas)
# assay-notes: combination Emax (second highest fraction inhibited in the dose matrix, 72 h); higher = more inhibition; extreme values may be limits of the assay
readout: combination Emax

compound	value
CN(CCO)CC[C@H](CSc1ccccc1)Nc1ccc(S(=O)(=O)NC(=O)c2ccc(N3CCC([C@@H](O)c4ccccc4-c4ccc(Cl)cc4)CC3)cc2)cc1S(=O)(=O)C(F)(F)F [AZD4320] + Cc1cc2ncnn2cc1Nc1ncc2c(n1)n(C1CCOCC1)c(=O)n2C [AZD7648] (first compound max 1 µM, 7x7, partner max 10 µM)	0.535
C=CCn1c(=O)c2cnc(Nc3ccc(N4CCN(C)CC4)cc3)nc2n1-c1cccc(C(C)(C)O)n1 [AZD1775] + O=C(c1cc(Cc2n[nH]c(=O)c3ccccc23)ccc1F)N1CCN(C(=O)C2CC2)CC1 [Olaparib] (first compound max 1 µM, partner max 10 µM)	0.354
COc1cccc2c1C(=O)c1c(O)c3c(c(O)c1C2=O)C[C@@](O)(C(=O)CO)C[C@@H]3O[C@H]1C[C@H](N)[C@H](O)[C@H](C)O1 [Doxorubicin] + Cc1cc2ncnn2cc1Nc1ncc2c(n1)n(C1CCOCC1)c(=O)n2C [AZD7648] (first compound max 1 µM, 7x7, partner max 10 µM)	0.67

###

# System: IST-MEL1 (Melanoma);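 note: after 72 h of two-drug dosing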
# assay-notes: Bliss excess, mean over the matrix (fraction); higher = more synergy
readout: Bliss excess

compound	value
O=C(c1cc(Cc2n[nH]c(=O)c3ccccc23)ccc1F)N1CCN(C(=O)C2CC2)CC1 [Olaparib] + CN(CC[C@H](CSC1=CC=CC=C1)NC2=C(C=C(C=C2)S(=O)(=O)NC(=O)C3=CC=C(C=C3)N4CCC(CC4)[C@H](C5=CC=CC=C5C6=CC=C(C=C6)Cl)O)S(=O)(=O)C(F)(F)F)CCO [AZD4320] (first compound max 10 µM, 7x7, partner max 1 µM)	-0.0373
CN(CCO)CC[C@H](CSc1ccccc1)Nc1ccc(S(=O)(=O)NC(=O)c2ccc(N3CCC([C@@H](O)c4ccccc4-c4ccc(Cl)cc4)CC3)cc2)cc1S(=O)(=O)C(F)(F)F [AZD4320] + C[C@@H]1COCCN1C2=NC(=NC(=C2)C3(CC3)[S@](=N)(=O)C)C4=C5C=CNC5=NC=C4 [AZD6738] (first compound max 1 µM, 7x7, partner max 10 µM)	-0.0336
N#Cc1cnc(Nc2cc(NC[C@H]3CNCCO3)c(C(F)(F)F)cn2)cn1 [SRA737] + Nc1ccn([C@@H]2O[C@H](CO)[C@@H](O)C2(F)F)c(=O)n1 [Gemcitabine] (first compound max 10 µM, 7x7, partner max 0.3 µM)	-0.0023
Cc1c2c(nn1C)CSCc1cc(n(C)n1)CSc1cc(c3ccccc3c1)OCCCc1c(C(=O)O)n(C)c3c-2c(Cl)ccc13 [AZD5991] + Cc1cc2ncnn2cc1Nc1ncc2c(n1)n(C1CCOCC1)c(=O)n2C [AZD7648] (first compound max 1 µM, 7x7, partner max 10 µM)	-0.0048
O=C(c1cc(Cc2n[nH]c(=O)c3ccccc23)ccc1F)N1CCN(C(=O)C2CC2)CC1 [Olaparib] + COc1nnc2ccc(N3CCC(c4ccc(OCCN5CCN(C)C(=O)[C@H]5C)cc4)CC3)nn12 [AZD5153] (first compound max 10 µM, 7x7, partner max 1 µM)	-0.045
CC1(C)CCC(CN2CCN(c3ccc(C(=O)NS(=O)(=O)c4ccc(NCC5CCOCC5)c([N+](=O)[O-])c4)c(Oc4cnc5[nH]ccc5c4)c3)CC2)=C(c2ccc(Cl)cc2)C1 [Venetoclax] + C[C@@H](Nc1cc(F)cc(F)c1)c1cc(C(=O)N(C)C)cc2c(=O)cc(N3CCOCC3)oc12 [AZD8186] (first compound max 1 µM, 7x7, partner max 3 µM)	0.0253
C[C@@H](c1ccc2nccn2c1)n1nnc2ncc(-c3cnn(C)c3)nc21 [Savolitinib] + CC1(C)CCC(CN2CCN(c3ccc(C(=O)NS(=O)(=O)c4ccc(NCC5CCOCC5)c([N+](=O)[O-])c4)c(Oc4cnc5[nH]ccc5c4)c3)CC2)=C(c2ccc(Cl)cc2)C1 [Venetoclax] (first compound max 1 µM, 7x7, partner max 1 µM)	-0.0306

###

# System: HPAF-II (Pancreatic Carcinoma)
# assay-notes: combination Emax (second highest fraction inhibited in the dose matrix, 72 h); higher = more inhibition; extreme values may be limits of the assay

compound	combination Emax
C[C@@H](c1ccc2nccn2c1)n1nnc2ncc(-c3cnn(C)c3)nc21 [Savolitinib] + Cc1c2c(nn1C)CSCc1cc(n(C)n1)CSc1cc(c3ccccc3c1)OCCCc1c(C(=O)O)n(C)c3c-2c(Cl)ccc13 [AZD5991] (first compound max 1 µM, 7x7, partner max 1 µM)	0.125
CN(C)CCCOc1ccc(-c2ccc3ncc4c(c3c2)n(C2CCOCC2)c(=O)n4C)cn1 [AZD0156] + O=C(c1cc(Cc2n[nH]c(=O)c3ccccc23)ccc1F)N1CCN(C(=O)C2CC2)CC1 [Olaparib] (first compound max 3 µM, partner max 3 µM)	0.25
Cn1cnc2c(F)c(Nc3ccc(Br)cc3Cl)c(C(=O)NOCCO)cc21 [Selumetinib] + CC(C)n1c(=O)n(C)c2cnc3cc(F)c(-c4ccc(OCCCN5CCCCC5)nc4)cc3c21 [AZD1390] (first compound max 10 µM, 7x7, partner max 0.3 µM)	0.64
C[C@@H](Nc1cc(F)cc(F)c1)c1cc(C(=O)N(C)C)cc2c(=O)cc(N3CCOCC3)oc12 [AZD8186] + C1CN(CCC1(C(=O)N[C@@H](CCO)C2=CC=C(C=C2)Cl)N)C3=NC=NC4=C3C=CN4 [AZD5363] (first compound max 10 µM, 7x7, partner max 10 µM)	0.249
NC1(C(=O)N[C@@H](CCO)c2ccc(Cl)cc2)CCN(c2ncnc3[nH]ccc23)CC1 [Capivasertib] + CC(=O)c1c(C)c2cnc(Nc3ccc(N4CCNCC4)cn3)nc2n(C2CCCC2)c1=O [Palbociclib] (first compound max 10 µM, 7x7, partner max 10 µM)	0.197
O=C(c1cc(Cc2n[nH]c(=O)c3ccccc23)ccc1F)N1CCN(C(=O)C2CC2)CC1 [Olaparib] + Cc1c2c(nn1C)CSCc1cc(n(C)n1)CSc1cc(c3ccccc3c1)OCCCc1c(C(=O)O)n(C)c3c-2c(Cl)ccc13 [AZD5991] (first compound max 10 µM, 7x7, partner max 1 µM)	0.0669
O=C(c1cc(Cc2n[nH]c(=O)c3ccccc23)ccc1F)N1CCN(C(=O)C2CC2)CC1 [Olaparib] + CN(CC[C@H](CSC1=CC=CC=C1)NC2=C(C=C(C=C2)S(=O)(=O)NC(=O)C3=CC=C(C=C3)N4CCC(CC4)[C@H](C5=CC=CC=C5C6=CC=C(C=C6)Cl)O)S(=O)(=O)C(F)(F)F)CCO [AZD4320] (first compound max 10 µM, 7x7, partner max 1 µM)	0.796
O=C(c1cc(Cc2n[nH]c(=O)c3ccccc23)ccc1F)N1CCN(C(=O)C2CC2)CC1 [Olaparib] + COc1nnc2ccc(N3CCC(c4ccc(OCCN5CCN(C)C(=O)[C@H]5C)cc4)CC3)nn12 [AZD5153] (first compound max 10 µM, 7x7, partner max 1 µM)	0.334
NC1(C(=O)N[C@@H](CCO)c2ccc(Cl)cc2)CCN(c2ncnc3[nH]ccc23)CC1 [Capivasertib] + Cn1cnc2c(F)c(Nc3ccc(Br)cc3Cl)c(C(=O)NOCCO)cc21 [Selumetinib] (first compound max 10 µM, 7x7, partner max 10 µM)	0.75
C[C@@H](Oc1cc(-c2cnn(C3CCNCC3)c2)cnc1N)c1c(Cl)ccc(F)c1Cl [Crizotinib] + Cn1cnc2c(F)c(Nc3ccc(Br)cc3Cl)c(C(=O)NOCCO)cc21 [Selumetinib] (first compound max 10 µM, 7x7, partner max 10 µM)	0.687
N#Cc1cnc(Nc2cc(NC[C@H]3CNCCO3)c(C(F)(F)F)cn2)cn1 [SRA737] + Nc1ccn([C@@H]2O[C@H](CO)[C@@H](O)C2(F)F)c(=O)n1 [Gemcitabine] (first compound max 10 µM, 7x7, partner max 0.3 µM)	0.61
C[C@@H]1COCCN1c1cc(C2([S@](C)(=N)=O)CC2)nc(-c2ccnc3[nH]ccc23)n1 [AZD6738] + Nc1ccn([C@@H]2O[C@H](CO)[C@@H](O)C2(F)F)c(=O)n1 [Gemcitabine] (first compound max 10 µM, 7x7, partner max 0.3 µM)	0.577
CS(=O)(=O)CCNCc1ccc(-c2ccc3ncnc(Nc4ccc(OCc5cccc(F)c5)c(Cl)c4)c3c2)o1 [Lapatinib] + NC1(c2ccc(-c3nc4ccn5c(=O)[nH]nc5c4cc3-c3ccccc3)cc2)CCC1 [MK-2206] (first compound max 10 µM, 7x7, partner max 10 µM)	0.402
Cc1cc2ncnn2cc1Nc1ncc2c(n1)n(C1CCOCC1)c(=O)n2C [AZD7648] + COc1cc([C@@H]2c3cc4c(cc3[C@@H](O[C@@H]3O[C@@H]5CO[C@@H](C)O[C@H]5[C@H](O)[C@H]3O)[C@H]3COC(=O)[C@H]23)OCO4)cc(OC)c1O [Etoposide] (first compound max 10 µM, 7x7, partner max 10 µM)	0.199
